Molecular target: Env of HIV-1 strain H086.8 (HIV-1)
Test: cell-based or functional assay

[
  {
    "BINDER": "γ22κ11 (antibody, V domains shown) VH: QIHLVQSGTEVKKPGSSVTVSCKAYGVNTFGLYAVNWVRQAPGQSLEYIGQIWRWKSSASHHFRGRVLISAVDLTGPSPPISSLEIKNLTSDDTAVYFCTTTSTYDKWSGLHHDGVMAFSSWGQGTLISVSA VL: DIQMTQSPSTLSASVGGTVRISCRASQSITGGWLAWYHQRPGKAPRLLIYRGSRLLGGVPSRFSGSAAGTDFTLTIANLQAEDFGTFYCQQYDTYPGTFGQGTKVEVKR",
    "neutralization IC50": "> 15 µg/mL"
  },
  {
    "BINDER": "γ20κ3 (antibody, V domains shown) VH: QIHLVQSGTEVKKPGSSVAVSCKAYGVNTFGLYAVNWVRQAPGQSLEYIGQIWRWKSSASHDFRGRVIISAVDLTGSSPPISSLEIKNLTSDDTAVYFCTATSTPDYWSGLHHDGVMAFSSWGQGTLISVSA VL: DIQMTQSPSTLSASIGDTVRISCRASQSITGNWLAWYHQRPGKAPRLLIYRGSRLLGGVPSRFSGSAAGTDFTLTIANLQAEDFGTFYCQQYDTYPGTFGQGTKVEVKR",
    "neutralization IC50": "> 15 µg/mL"
  },
  {
    "BINDER": "γ3κ18 (antibody, V domains shown) VH: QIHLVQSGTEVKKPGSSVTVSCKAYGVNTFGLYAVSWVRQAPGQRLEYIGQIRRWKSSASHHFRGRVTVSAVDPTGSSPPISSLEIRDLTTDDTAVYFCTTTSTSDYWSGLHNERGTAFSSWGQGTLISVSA VL: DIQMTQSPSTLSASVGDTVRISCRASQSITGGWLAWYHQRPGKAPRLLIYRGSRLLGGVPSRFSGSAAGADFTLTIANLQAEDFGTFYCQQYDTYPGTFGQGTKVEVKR",
    "neutralization IC50": "0.209 µg/mL"
  },
  {
    "BINDER": "8ANC195 IgG (antibody, V domains shown) VH: QIHLVQSGTEVKKPGSSVTVSCKAYGVNTFGLYAVNWVRQAPGQSLEYIGQIWRWKSSASHHFRGRVLISAVDLTGSSPPISSLEIKNLTSDDTAVYFCTTTSTYDKWSGLHHDGVMAFSSWGQGTLISVSA VL: DIQMTQSPSTLSASIGDTVRISCRASQSITGNWVAWYQQRPGKAPRLLIYRGAALLGGVPSRFSGSAAGTDFTLTIGNLQAEDFGTFYCQQYDTYPGTFGQGTKVEV",
    "neutralization IC50": "0.095 µg/mL"
  },
  {
    "BINDER": "γ15κ18 (antibody, V domains shown) VH: QIHLVQSGTEVKKPGSSVTVSCKAYGVNTFGLYAVNWVRQAPGQSLEYIGQIWRWKSSASHHFRGRVIISAVDLTGSSPPISSLEIKNLTSDDTAVYFCTTASTYDKWSGLHHDGVMAFSSWGQGTLISVSA VL: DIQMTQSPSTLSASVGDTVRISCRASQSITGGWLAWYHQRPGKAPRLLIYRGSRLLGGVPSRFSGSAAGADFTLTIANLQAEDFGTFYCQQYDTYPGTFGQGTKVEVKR",
    "neutralization IC50": "> 15 µg/mL"
  },
  {
    "BINDER": "γ20κ19 (antibody, V domains shown) VH: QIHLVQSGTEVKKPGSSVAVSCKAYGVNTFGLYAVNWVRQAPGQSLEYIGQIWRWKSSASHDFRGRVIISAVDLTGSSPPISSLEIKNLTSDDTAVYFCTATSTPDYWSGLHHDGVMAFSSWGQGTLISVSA VL: DIQMTQSPSTLSASVGDTVRISCRASQSITGGWLAWYHQRPGKAPRLLIYRGSRLLGGVPSRFSGSAAGTGFTLTIANLQAEDFGTFYCQQYDTYPGTFGQGTKVEVKR",
    "neutralization IC50": "> 15 µg/mL"
  },
  {
    "BINDER": "γ46κ18 (antibody, V domains shown) VH: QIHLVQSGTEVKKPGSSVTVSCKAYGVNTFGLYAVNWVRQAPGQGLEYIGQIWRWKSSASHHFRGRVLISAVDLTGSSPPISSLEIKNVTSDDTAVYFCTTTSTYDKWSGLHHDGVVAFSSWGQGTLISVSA VL: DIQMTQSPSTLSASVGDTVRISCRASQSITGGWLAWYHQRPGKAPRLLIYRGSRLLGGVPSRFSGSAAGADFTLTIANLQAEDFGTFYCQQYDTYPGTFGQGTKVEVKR",
    "neutralization IC50": "> 15 µg/mL"
  },
  {
    "BINDER": "γ20κ18 (antibody, V domains shown) VH: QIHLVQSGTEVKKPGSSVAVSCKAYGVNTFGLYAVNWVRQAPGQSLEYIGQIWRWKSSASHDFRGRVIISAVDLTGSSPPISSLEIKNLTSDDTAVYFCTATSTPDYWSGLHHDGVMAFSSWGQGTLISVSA VL: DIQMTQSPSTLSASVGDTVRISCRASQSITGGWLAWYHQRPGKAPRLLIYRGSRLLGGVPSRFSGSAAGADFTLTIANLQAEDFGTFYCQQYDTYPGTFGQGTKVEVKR",
    "neutralization IC50": "> 15 µg/mL"
  },
  {
    "BINDER": "γ22κ5 (antibody, V domains shown) VH: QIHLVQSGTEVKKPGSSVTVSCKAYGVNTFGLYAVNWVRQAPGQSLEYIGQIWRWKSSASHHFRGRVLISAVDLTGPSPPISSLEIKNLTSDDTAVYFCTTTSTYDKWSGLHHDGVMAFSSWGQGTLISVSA VL: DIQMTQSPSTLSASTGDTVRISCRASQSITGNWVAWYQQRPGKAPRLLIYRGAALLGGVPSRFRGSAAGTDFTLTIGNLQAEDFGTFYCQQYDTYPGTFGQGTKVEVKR",
    "neutralization IC50": "> 15 µg/mL"
  },
  {
    "BINDER": "γ23κ18 (antibody, V domains shown) VH: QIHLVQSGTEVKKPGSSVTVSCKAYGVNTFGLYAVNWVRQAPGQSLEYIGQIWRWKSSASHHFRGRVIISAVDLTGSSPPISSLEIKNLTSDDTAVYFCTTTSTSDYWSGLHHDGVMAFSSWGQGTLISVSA VL: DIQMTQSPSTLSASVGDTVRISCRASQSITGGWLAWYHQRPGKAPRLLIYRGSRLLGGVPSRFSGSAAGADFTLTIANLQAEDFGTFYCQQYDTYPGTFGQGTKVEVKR",
    "neutralization IC50": "> 15 µg/mL"
  }
]
